- Organism: Rattus norvegicus
- experiment-notes: Selectivity ratio of Ki for dopamine D1 receptor in rat striatal membranes to Ki for dopamine D2 receptor in rat striatal membranes
- Type: cell membranes
- run-conditions: Membrane
Threshold 8. Ratio Ki below it: T. Ratio Ki at it or above: F.

Look over these answered cases.
molecule	assigned-category
COc1ccc2c(c1)CC1c3cc(OC)c(Cl)cc3CCN1C2 (stereo not given)	T
Oc1ccc2c(c1)CC1c3cc(O)c(O)cc3CCN1C2 (stereo not given)	T
Oc1ccc2c(c1)CC1c3cc4c(cc3CCN1C2)OCO4 (stereo not given)	T
COc1cc2c(cc1OC)C1Cc3cccc(OC)c3CN1CC2 (stereo not given)	F
COc1ccc2c(c1)CC1c3cc(O)c(O)cc3CCN1C2 (stereo not given)	F
COc1ccc2c(c1)CC1c3cc(OC)c(OC)cc3CCN1C2 (stereo not given)	T
Oc1ccc2c(c1)CC1c3cc(O)c(Cl)cc3CCN1C2 (stereo not given)	T
COc1ccc2c(c1)CC1c3cc4c(cc3CCN1C2)OCO4 (stereo not given)	T

Please let me know if Oc1cccc2c1CN1CCc3cc4c(cc3C1C2)OCO4 (stereo not given) shows Ratio Ki below 8.
F

Please let me know if COc1ccc2c(c1)CC1c3cc(OCc4ccccc4)c(OCc4ccccc4)cc3CCN1C2 (stereo not given) shows Ratio Ki below 8.
T
